Ref: BigSolDB 2.1

- stated-conditions: in ethyl acetate, 303.15 K

{"entry-smiles": "COc1ccc(C(=O)c2ccc(OC)cc2)cc1", "solubility (mole fraction)": 0.0129}

* * *

- stated-conditions: in isopropanol, 318.15 K
quantity: solubility (mole fraction)

{"entry-smiles": "COc1ccc(C(=O)c2ccc(OC)cc2)cc1", "quantity": "solubility (mole fraction)", "result": 0.00308}

* * *

- stated-conditions: in methyl acetate, 298.15 K

{"entry-smiles": "COc1ccc(C(=O)c2ccc(OC)cc2)cc1", "solubility (mole fraction)": 0.0115}

* * *

- stated-conditions: in n-propyl acetate, 308.15 K

{"entry-smiles": "COc1ccc(C(=O)c2ccc(OC)cc2)cc1", "solubility (mole fraction)": 0.0151}

* * *

- stated-conditions: in ethanol, 303.15 K

{"entry-smiles": "COc1ccc(C(=O)c2ccc(OC)cc2)cc1", "solubility (mole fraction)": 0.00141}

* * *

- stated-conditions: in methanol, 313.15 K
quantity: solubility (mole fraction)

{"entry-smiles": "COc1ccc(C(=O)c2ccc(OC)cc2)cc1", "numeric-readout": 0.00181}

* * *

- stated-conditions: in benzene, 323.15 K
quantity: solubility (mole fraction)

{"entry-smiles": "COc1ccc(C(=O)c2ccc(OC)cc2)cc1", "quantity": "solubility (mole fraction)", "numeric-readout": 0.041}

* * *

- stated-conditions: in benzene, 333.15 K
quantity: solubility (mole fraction)

{"entry-smiles": "COc1ccc(C(=O)c2ccc(OC)cc2)cc1", "numeric-readout": 0.063}

* * *

- stated-conditions: in n-propyl acetate, 328.15 K

{"entry-smiles": "COc1ccc(C(=O)c2ccc(OC)cc2)cc1", "solubility (mole fraction)": 0.0329}

* * *

- stated-conditions: in n-propyl acetate, 323.15 K
quantity: solubility (mole fraction)

{"entry-smiles": "COc1ccc(C(=O)c2ccc(OC)cc2)cc1", "numeric-readout": 0.0277}

* * *

- stated-conditions: in ethyl acetate, 318.15 K

{"entry-smiles": "COc1ccc(C(=O)c2ccc(OC)cc2)cc1", "solubility (mole fraction)": 0.023}

* * *

- stated-conditions: in n-butanol, 313.15 K

{"entry-smiles": "COc1ccc(C(=O)c2ccc(OC)cc2)cc1", "solubility (mole fraction)": 0.0036}

* * *

- stated-conditions: in isopropanol, 298.15 K

{"entry-smiles": "COc1ccc(C(=O)c2ccc(OC)cc2)cc1", "solubility (mole fraction)": 0.001}

* * *

- stated-conditions: in methyl acetate, 303.15 K

{"entry-smiles": "COc1ccc(C(=O)c2ccc(OC)cc2)cc1", "solubility (mole fraction)": 0.0138}

* * *

- stated-conditions: in n-butanol, 293.15 K
quantity: solubility (mole fraction)

{"entry-smiles": "COc1ccc(C(=O)c2ccc(OC)cc2)cc1", "result": 0.00114}

* * *

- stated-conditions: in n-butanol, 308.15 K

{"entry-smiles": "COc1ccc(C(=O)c2ccc(OC)cc2)cc1", "solubility (mole fraction)": 0.00306}

* * *

- stated-conditions: in ethyl acetate, 323.15 K

{"entry-smiles": "COc1ccc(C(=O)c2ccc(OC)cc2)cc1", "solubility (mole fraction)": 0.0284}

* * *

- stated-conditions: in methyl acetate, 318.15 K

{"entry-smiles": "COc1ccc(C(=O)c2ccc(OC)cc2)cc1", "solubility (mole fraction)": 0.0248}

* * *

- stated-conditions: in ethyl acetate, 308.15 K

{"entry-smiles": "COc1ccc(C(=O)c2ccc(OC)cc2)cc1", "solubility (mole fraction)": 0.0155}

* * *

- stated-conditions: in isobutanol, 323.15 K
quantity: solubility (mole fraction)

{"entry-smiles": "COc1ccc(C(=O)c2ccc(OC)cc2)cc1", "numeric-readout": 0.00539}

* * *

- stated-conditions: in ethyl acetate, 298.15 K

{"entry-smiles": "COc1ccc(C(=O)c2ccc(OC)cc2)cc1", "solubility (mole fraction)": 0.0111}

* * *

- stated-conditions: in benzene, 318.15 K
quantity: solubility (mole fraction)

{"entry-smiles": "COc1ccc(C(=O)c2ccc(OC)cc2)cc1", "quantity": "solubility (mole fraction)", "numeric-readout": 0.0338}

* * *

- stated-conditions: in methyl acetate, 313.15 K
quantity: solubility (mole fraction)

{"entry-smiles": "COc1ccc(C(=O)c2ccc(OC)cc2)cc1", "quantity": "solubility (mole fraction)", "numeric-readout": 0.0204}

* * *

- stated-conditions: in methyl acetate, 308.15 K

{"entry-smiles": "COc1ccc(C(=O)c2ccc(OC)cc2)cc1", "solubility (mole fraction)": 0.0166}

* * *

- stated-conditions: in isobutanol, 298.15 K

{"entry-smiles": "COc1ccc(C(=O)c2ccc(OC)cc2)cc1", "solubility (mole fraction)": 0.00137}

* * *

- stated-conditions: in isobutanol, 303.15 K

{"entry-smiles": "COc1ccc(C(=O)c2ccc(OC)cc2)cc1", "solubility (mole fraction)": 0.00168}

* * *

- stated-conditions: in isopropanol, 333.15 K
quantity: solubility (mole fraction)

{"entry-smiles": "COc1ccc(C(=O)c2ccc(OC)cc2)cc1", "quantity": "solubility (mole fraction)", "result": 0.0075}

* * *

- stated-conditions: in ethanol, 308.15 K

{"entry-smiles": "COc1ccc(C(=O)c2ccc(OC)cc2)cc1", "solubility (mole fraction)": 0.00188}

* * *

- stated-conditions: in n-propanol, 308.15 K
quantity: solubility (mole fraction)

{"entry-smiles": "COc1ccc(C(=O)c2ccc(OC)cc2)cc1", "numeric-readout": 0.00224}

* * *

- stated-conditions: in ethanol, 323.15 K

{"entry-smiles": "COc1ccc(C(=O)c2ccc(OC)cc2)cc1", "solubility (mole fraction)": 0.00402}

* * *

- stated-conditions: in benzene, 308.15 K
quantity: solubility (mole fraction)

{"entry-smiles": "COc1ccc(C(=O)c2ccc(OC)cc2)cc1", "quantity": "solubility (mole fraction)", "numeric-readout": 0.0221}

* * *

- stated-conditions: in methanol, 318.15 K
quantity: solubility (mole fraction)

{"entry-smiles": "COc1ccc(C(=O)c2ccc(OC)cc2)cc1", "quantity": "solubility (mole fraction)", "numeric-readout": 0.00219}

* * *

- stated-conditions: in methanol, 293.15 K
quantity: solubility (mole fraction)

{"entry-smiles": "COc1ccc(C(=O)c2ccc(OC)cc2)cc1", "numeric-readout": 0.00067}

* * *

- stated-conditions: in n-propanol, 318.15 K

{"entry-smiles": "COc1ccc(C(=O)c2ccc(OC)cc2)cc1", "solubility (mole fraction)": 0.00403}

* * *

- stated-conditions: in ethanol, 333.15 K
quantity: solubility (mole fraction)

{"entry-smiles": "COc1ccc(C(=O)c2ccc(OC)cc2)cc1", "numeric-readout": 0.00653}

* * *

- stated-conditions: in n-propanol, 303.15 K
quantity: solubility (mole fraction)

{"entry-smiles": "COc1ccc(C(=O)c2ccc(OC)cc2)cc1", "quantity": "solubility (mole fraction)", "numeric-readout": 0.00177}

* * *

- stated-conditions: in n-butanol, 318.15 K

{"entry-smiles": "COc1ccc(C(=O)c2ccc(OC)cc2)cc1", "solubility (mole fraction)": 0.00457}

* * *

- stated-conditions: in isobutanol, 318.15 K

{"entry-smiles": "COc1ccc(C(=O)c2ccc(OC)cc2)cc1", "solubility (mole fraction)": 0.00404}

* * *

- stated-conditions: in n-propyl acetate, 318.15 K

{"entry-smiles": "COc1ccc(C(=O)c2ccc(OC)cc2)cc1", "solubility (mole fraction)": 0.0229}

* * *

- stated-conditions: in methanol, 308.15 K
quantity: solubility (mole fraction)

{"entry-smiles": "COc1ccc(C(=O)c2ccc(OC)cc2)cc1", "numeric-readout": 0.00134}

* * *

- stated-conditions: in ethyl acetate, 313.15 K

{"entry-smiles": "COc1ccc(C(=O)c2ccc(OC)cc2)cc1", "solubility (mole fraction)": 0.0189}

* * *

- stated-conditions: in ethyl acetate, 328.15 K
quantity: solubility (mole fraction)

{"entry-smiles": "COc1ccc(C(=O)c2ccc(OC)cc2)cc1", "numeric-readout": 0.0343}

* * *

- stated-conditions: in isopropanol, 323.15 K

{"entry-smiles": "COc1ccc(C(=O)c2ccc(OC)cc2)cc1", "solubility (mole fraction)": 0.00423}

* * *

- stated-conditions: in ethanol, 328.15 K

{"entry-smiles": "COc1ccc(C(=O)c2ccc(OC)cc2)cc1", "solubility (mole fraction)": 0.00516}

* * *

- stated-conditions: in methyl acetate, 323.15 K

{"entry-smiles": "COc1ccc(C(=O)c2ccc(OC)cc2)cc1", "solubility (mole fraction)": 0.0311}

* * *

- stated-conditions: in n-propanol, 323.15 K

{"entry-smiles": "COc1ccc(C(=O)c2ccc(OC)cc2)cc1", "solubility (mole fraction)": 0.00538}

* * *

- stated-conditions: in ethyl acetate, 333.15 K
quantity: solubility (mole fraction)

{"entry-smiles": "COc1ccc(C(=O)c2ccc(OC)cc2)cc1", "numeric-readout": 0.0408}

* * *

- stated-conditions: in methyl acetate, 293.15 K

{"entry-smiles": "COc1ccc(C(=O)c2ccc(OC)cc2)cc1", "solubility (mole fraction)": 0.00958}
